Exercise: state measured normalized growth for each of the molecules provided.
Test: chemical genetic growth profiling, strain panel (AID 1159580);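 note: tested at 20 µM; growth read once vehicle control cultures reached saturation at 30 °C; 1 = growth at the plate median or of vehicle wells; lower values mean less growth of the strain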
Conditions: S. cerevisiae deletion strains, growth OD, locus YPR141C, strain kar3, hits give low values
The campaign covered roughly 5,500 compounds. About 2,000 (36%) were called active. About 18% were inconclusive and are not listed. The list shows a part of the results.

>>> result("COc1ccc(-c2cc(=O)c3c(OC)cc(OC)cc3o2)cc1")
"1.01 (inactive)"
>>> result("COc1cc(C)c2c(=O)cc(-c3ccccc3)oc2c1")
"0.954 (inactive)"
>>> result("Clc1ccc(COC(Cn2ccnc2)c2ccc(Cl)cc2Cl)cc1 (configuration not stated)")
"0.0789 (active)"
>>> result("CN1CCC[C@@H]1CCO[C@](C)(c1ccccc1)c1ccc(Cl)cc1")
"0.997 (inactive)"
>>> result("Clc1ccc(COC(Cn2ccnc2)c2ccc(Cl)cc2Cl)c(Cl)c1 (configuration not stated)")
"0.0743 (active)"

Please state normalized growth for every molecule in the list that follows.
1. O=C(O)C(O)C(O)C(O)C(O)C(=O)O (configuration not stated)
2. NC(C(=O)O)C(O)C(=O)O (configuration not stated)

1. 0.986 (inactive)
2. 1.02 (inactive)
